measurement-target: HLA A0202 (human)
assay-text: 125I-probe competition, purified HLA
condition-summary: remark: other sources report otherwise

binder: ILYAHIQCL (modifications not checked) [HPV18.E1.266]
IC50 [nM]: 8.5
